# target_desc: human synovial fluid PLA2 (Homo sapiens, UniProt P14555)
# Construct: Purified human synovial fluid PLA2; tissue R. C; Franson (Medical College of Virginia, Richmond, Va.); host or cells: human synovial fluid
# Sequence (P14555 21-144): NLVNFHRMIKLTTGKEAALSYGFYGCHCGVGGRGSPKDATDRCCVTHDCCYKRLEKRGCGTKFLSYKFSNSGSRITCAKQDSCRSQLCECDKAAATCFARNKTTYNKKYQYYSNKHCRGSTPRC
# test_protocol: Millimolar Calcium-Dependent PLA2 Assay (human synovial fluid PLA2, [14C]-oleate labeled E. coli substrate)
# Type: biochemical
# test_context: IC50 HSF PLA2, human synovial fluid; pH 7.0, 5 mM CaCl2, 30 min at 37° C.; ">>" = little or no inhibition at highest concentration used
For each entry below, report its pIC50 value.
FYI, pIC50 means -log10 of a concentration in mol per litre.

Please give the measured pIC50 for this molecule: `CCCCCCCCCCCC#Cc1ccccc1C=C(P(=O)(O)O)P(=O)(O)O`
4.60

Please give the measured pIC50 for this molecule: `CCCCCCCCCCCC#Cc1cccc(C=C(P(=O)(O)O)P(=O)(O)O)c1`
4.42
